Test: Cell Viability - LYMP2-018 (AID 985);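 note: compound exposure lasted 24 hr at 37 °C; plate controls were DMSO only for no effect and tetraoctylammonium bromide at 92 µM for full effect; nearly all actives have a fitted effect of over 50% in size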
Details: LYMP2-018 lymphoblastoid cells, viability (qHTS); series mostly up to 92.2 µM
Results filed as inconclusive are left out. Active and inactive are the calls of the source. Calls come from the whole dose curve; as a rule, active = well fitted cell-killing curve with a large enough effect; inconclusive = small, poorly fitted or top-dose-only effect; inactive = flat fitted curve, though single readings scatter.
Tick one outcome: yes (1) for active, no (0) for inactive

Known results for molecules:
{"molecule": "c1cc2ccc3cccc4ccc(c1)c2c34", "class label": "no (0)"}
{"molecule": "C1CCC(NC2CCCCC2)CC1", "class label": "no (0)"}
{"molecule": "Nc1ccc(Cl)cc1N", "class label": "no (0)"}
{"molecule": "COc1ccc(C(c2ccc(OC)cc2)C(Cl)(Cl)Cl)cc1", "class label": "no (0)"}
{"molecule": "O=C(O)C(Cl)Cl", "class label": "no (0)"}
{"molecule": "CCOP(=O)(NC(C)C)Oc1ccc(SC)c(C)c1 (configuration not stated)", "class label": "no (0)"}
{"molecule": "Cc1cc(O)ccc1Cl", "class label": "no (0)"}
{"molecule": "CN(C)[C@@H]1C(=O)C(C(N)=O)=C(O)[C@@]2(O)C(=O)C3=C(O)c4c(O)cccc4[C@@](C)(O)[C@H]3[C@H](O)[C@@H]12", "class label": "no (0)"}
{"molecule": "CCCCOC(=O)c1ccccc1C(=O)OCc1ccccc1", "class label": "no (0)"}
{"molecule": "Nc1ccc(Sc2ccc(N)cc2)cc1", "class label": "no (0)"}

Q: What did this assay record as the result for Nc1ccc([N+](=O)[O-])cc1 ?
A: no (0)

Q: What did this assay record as the result for CN(C)NC(=O)CCC(=O)O ?
A: no (0)

Q: What did this assay record as the result for C=CC(=O)NCNC(=O)C=C ?
A: no (0)

Q: What did this assay record as the result for O=C(O)COc1ccccc1 ?
A: no (0)

----------
Target: Peroxisome proliferator-activated receptor delta (Homo sapiens) (UniProt Q03181)
Sequence (Q03181 whole entry, looked up): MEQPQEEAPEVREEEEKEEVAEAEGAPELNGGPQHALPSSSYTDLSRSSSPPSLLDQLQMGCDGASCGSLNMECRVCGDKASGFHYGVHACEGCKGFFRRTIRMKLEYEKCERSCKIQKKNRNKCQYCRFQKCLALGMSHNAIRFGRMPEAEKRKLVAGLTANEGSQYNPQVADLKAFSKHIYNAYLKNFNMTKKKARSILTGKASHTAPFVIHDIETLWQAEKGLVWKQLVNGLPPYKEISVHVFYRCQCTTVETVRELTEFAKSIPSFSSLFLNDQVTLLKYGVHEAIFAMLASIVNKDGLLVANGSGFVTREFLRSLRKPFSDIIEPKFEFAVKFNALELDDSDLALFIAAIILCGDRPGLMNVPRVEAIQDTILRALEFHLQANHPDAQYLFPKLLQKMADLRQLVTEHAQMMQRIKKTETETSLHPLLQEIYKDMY
Test: qHTS assay for small molecule antagonists of peroxisome proliferator-activated receptor delta signaling (AID 588535)
Conditions: HEK293T PPARd-UAS-bla, beta-lactamase FRET ratio, 18 h; series mostly up to 76.7 µM
Inconclusive results are not listed. Active and inactive are the calls of the source. Calls follow the shape of the dose curve; as a rule, active = well fitted inhibition curve with a large enough effect in the signal ratio, with a control signal flat (not every such curve was filed as active); inconclusive = small, poorly fitted or top-dose-only effect, or effect the other way, or a change in a side signal; inactive = no such curve, though single readings can be large or run the other way; the % refers to the signal ratio.
Tick one outcome: yes = active, no = inactive

Q: What did this assay record as the result for O=[N+]([O-])c1cc([N+](=O)[O-])c2ccccc2c1 ?
A: no

Q: What did this assay record as the result for CC(=O)[O][Hg][c]1ccccc1 ?
A: yes

Q: What did this assay record as the result for Clc1cnc(Oc2ccc(Oc3ncc(Cl)cc3Cl)cc2)c(Cl)c1 ?
A: no

----------
I'd be grateful if you could share measured z-score for these entries.
Assay: qHTS for identification of novel therapeutic agents for treatment of microphthalmiaassociated transcription factor (MiT) renal cell carcinoma (RCC) (AID 1963991);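 note: curves scaled with 100% = DMSO viability and 0% = empty wells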
Details: TFE3-RCC viability, CellTiter-Glo, 48 h; measured here: UOK145 Z-AUC; stronger effect = lower value
Results filed as inconclusive are left out.
One number for each entry.

Answered examples (5):
{"molecule": "c1ccc2c(CN3CCNCC3)cccc2c1", "z-score": 0.833}
{"molecule": "COc1ccc(CC2NCCc3cc(OC)c(OC)cc32)cc1OC (stereo unspecified)", "z-score": 0.8}
{"molecule": "COC(=O)[C@@H](N)CCCN=C(N)N[N+](=O)[O-]", "z-score": 2.13}
{"molecule": "Cc1ccccc1-n1c(Cn2ncc3c(N)ncnc32)nc2cccc(C)c2c1=O", "z-score": -1.02}
{"molecule": "O=c1[nH]c2ccc(Cl)cc2c(N[C@@H]2CN3CCC2CC3)c1-c1nc2ccccc2[nH]1", "z-score": -1.04}

Let's switch to this molecule now.
Q: Sample COc1cc([C@@H]2c3cc4c(cc3[C@@H](O)C3COC(=O)C32)OCO4)cc(OC)c1O (stereo partly specified) — what was its z-score?
A: -1.12

----------
Biological target: Cytochrome P450 3A4 (Homo sapiens)
Assay: Cytochrome P450 family 3 subfamily A member 4 (CYP3A4) small molecule antagonists: luciferase qHTS assay (AID 1645841); note: nearly all actives have a fitted effect of over 45% in size; note: potency is the fitted concentration of half-maximal effect
Conditions: P450-Glo CYP3A4 enzyme assay, luciferin luminescence; series mostly up to 57.4 µM
Records with an inconclusive call do not appear. Activity calls are given as the source filed them. Calls follow the shape of the dose curve; as a rule, active = well fitted inhibition curve with a large enough effect in the repeat runs; inconclusive = weak or mixed curves; inactive = no such curve, though single readings can be large or run the other way.
assay metric: Potency

Answered examples (7):
{"compound": "CCCN(CCC)c1c([N+](=O)[O-])cc(S(N)(=O)=O)cc1[N+](=O)[O-]", "Potency": "8.44 µM (active)"}
{"compound": "O=C(O)c1ccccc1O", "Potency": "inactive"}
{"compound": "CC(C)NCC(O)c1ccc([N+](=O)[O-])cc1 (stereo not drawn)", "Potency": "inactive"}
{"compound": "CC(=O)[O][Hg][c]1ccccc1", "Potency": "7.76 µM (active)"}
{"compound": "O=[N+]([O-])c1ccc([As](=O)(O)O)cc1", "Potency": "inactive"}
{"compound": "O=C(NCC1CCOCC1)c1cnc(Nc2ccc(Cl)cc2Cl)nc1C(F)(F)F", "Potency": "inactive"}
{"compound": "CC[N+]1(CCOC(=O)C(O)(c2ccccc2)c2ccccc2)CCCCC1", "Potency": "inactive"}

Q: Sample Nc1ccc(Cl)cc1N — what was its Potency?
A: 7.96 µM (active)

----------
Test: Quantitative High-Throughput drug screen in 47 multiple myeloma cell lines against the NCATS MIPE library collection: PCM6_Riken cell viability assay (AID 1919870); note: nearly all actives have a fitted effect of over 30% in size
Settings: CellTiter-Glo ATP, 48 h; series mostly up to 45.8 µM
Description: PI: Beverly A. Mock Ph.D. Laboratory of Cancer Biology and Genetics, Center for Cancer Research, National Cancer Institute, National Institute of Health, Bethesda, Maryland […] 5; Detector; 425V; Luminescence; Viewlux PerkinElmer. […] 1. […] Briefly, the corresponding myeloma cell lines were screened in 1,536-well plates with 500 cells, 5-uL per well for inhibition of cell viability (assessed by measuring ATP levels with CellTiterGlo). […]
Results filed as inconclusive are left out. The source made the active and inactive calls. The call rests on the fitted dose curve; in most records, active means well fitted cell-killing curve with a large enough effect; inconclusive means small, poorly fitted or top-dose-only effect, or effect the other way; inactive means no such curve, though single readings can be large or run the other way.
Tick one outcome: active, inactive

Known results for molecules:
{"molecule": "CC(=Cc1csc(C)n1)[C@@H]1C[C@H]2O[C@@H]2CCC[C@H](C)[C@@H](O)[C@@H](C)C(=O)C(C)(C)[C@@H](O)CC(=O)O1", "class label": "inactive"}
{"molecule": "COc1ccc2c(c1)[C@]13CCCCC1C(C2)N(C)CC3 (some centres undefined)", "class label": "inactive"}
{"molecule": "O=c1[nH]c2ccccc2n1C1CCN(Cc2ccc(-c3[nH]c4cc5ncnc5cc4nc3-c3ccccc3)cc2)CC1", "class label": "active"}
{"molecule": "c1cc2c(cc1[C@H]1OC[C@H]3[C@H]1CO[C@H]3c1ccc3c(c1)OCO3)OCO2", "class label": "inactive"}
{"molecule": "CC(=O)N(C)c1cccc(-c2ccnc3c(C(=O)c4cccs4)cnn23)c1", "class label": "inactive"}

Q: What did this assay record as the result for COCC1(CO)C(=O)C2CCN1CC2 (centres undefined) ?
A: active

Q: What did this assay record as the result for CCN(CC)C(=O)c1ccc(C2=CC3(CCNCC3)Oc3cccc(O)c32)cc1 ?
A: inactive

Q: What did this assay record as the result for CC(C)[C@]12O[C@@H]1[C@@H]1O[C@]13[C@]1(O[C@H]1C[C@@H]1C4=C(CC[C@@]13C)C(=O)OC4)[C@H]2O ?
A: inactive

Q: What did this assay record as the result for CN1CCN(c2ccc([N+](=O)[O-])c3no[n+]([O-])c23)CC1 ?
A: active

----------
Test: Quantitative High-Throughput drug screen in 47 multiple myeloma cell lines against the NCATS MIPE library collection: XG1_PLB cell viability assay (AID 1919866); note: nearly all actives have a fitted effect of over 35% in size; note: potency is the fitted concentration of half-maximal effect
Details: CellTiter-Glo ATP, 48 h; series mostly up to 45.8 µM
Results filed as inconclusive are left out. Calls of active or inactive are those of the source. The call rests on the fitted dose curve; in most records, active means well fitted cell-killing curve with a large enough effect; inconclusive means small, poorly fitted or top-dose-only effect, or effect the other way; inactive means no such curve, though single readings can be large or run the other way.

{"compound": "CC(=O)Nc1ccc(OC[C@](C)(O)C(=O)Nc2ccc([N+](=O)[O-])c(C(F)(F)F)c2)cc1", "Potency": "inactive"}
{"compound": "CCNC(=O)CC1N=C(c2ccc(Cl)cc2)c2cc(OC)ccc2-n2c(C)nnc21 (centres undefined)", "Potency": "5900 nM (active)"}
{"compound": "CSCC[C@@H](NC(=O)[C@@H](Cc1ccccc1)NC(=O)CNC(=O)CNC(=O)[C@@H](N)Cc1ccc(O)cc1)C(=O)O", "Potency": "inactive"}
{"compound": "CC(C)(O)C=CC(=O)[C@](C)(O)[C@H]1[C@H](O)C[C@]2(C)[C@@H]3CC=C4[C@@H](C=C(O)C(=O)C4(C)C)[C@]3(C)C(=O)C[C@@]12C", "Potency": "41.8 nM (active)"}

----------
Experiment: Quantitative High-Throughput drug screen in 47 multiple myeloma cell lines against the NCATS MIPE library collection: ARP1_JJKsccF8 cell viability assay (AID 1918928; note: nearly all actives have a fitted effect of over 40% in size;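 for viability: 100% = DMSO only wells and 0% = medium only wells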)
Conditions: ARP1 myeloma cells viability, CellTiter-Glo ATP, 48 h; series mostly up to 45.8 µM
Inconclusive results are not listed. The source made the active and inactive calls. Calls follow the shape of the dose curve; as a rule, active = well fitted cell-killing curve with a large enough effect; inconclusive = small, poorly fitted or top-dose-only effect, or effect the other way; inactive = no such curve, though single readings can be large or run the other way.
Tick one outcome: active, inactive

Known results for molecules:
{"molecule": "Cc1c(C(=O)Nc2cccc(C(F)(F)F)c2)cc(-c2ccccc2)n1CCCN1CCOCC1", "class label": "active"}
{"molecule": "C[C@]12CC[C@H](O)CC1=CC[C@H]1[C@H]3CCC(=O)[C@@]3(C)CC[C@@H]12", "class label": "inactive"}
{"molecule": "CC(=Cc1csc(C)n1)[C@@H]1C[C@H]2O[C@]2(C)CCC[C@H](C)[C@@H](O)[C@@H](C)C(=O)C(C)(C)[C@@H](O)CC(=O)O1", "class label": "inactive"}

# next molecule below
Q: What did this assay record as the result for O=[N+]([O-])c1ncc[nH]1 ?
A: inactive
